- assayed.system: T1, 4H3427-bN
- T1 chain: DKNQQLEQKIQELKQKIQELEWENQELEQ
- assay.info: two-hybrid library CCNG1;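 further: natural log of median RNA to DNA barcode read ratio; higher means stronger binding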
Listed below: interaction score values for each entry.

binder: DKIQQLKQEIQELEQKNQELKWEIQELKQ [4H2618-bN]
interaction score: 0.0822
--
binder: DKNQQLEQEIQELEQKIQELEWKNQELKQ [4H3112-bN]
interaction score: 0.996
--
binder: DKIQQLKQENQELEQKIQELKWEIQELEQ [4H2729-bN]
interaction score: -1.07
--
binder: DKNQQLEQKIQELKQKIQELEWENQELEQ [4H3427-bN]
interaction score: -0.0454
--
binder: DKNQQLEQKIQELEQENQELKWEIQELKQ [4H3354-bN]
interaction score: -0.405
--
binder: DKIQQLKQEIQELKQEIQELEWENQELEQ [4H2627-bN]
interaction score: -0.336
--
binder: DKIQQLKQENQELEQEIQELKWKIQELKQ [4H2702-bN]
interaction score: -0.588
--
binder: DENQQLKQKIQELEQKIQELEWKNQELEQ [4H1831-bN]
interaction score: -0.445
--
binder: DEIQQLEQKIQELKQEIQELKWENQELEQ [4H331-bN]
interaction score: 1.12
--
binder: DKIQQLKQEIQELEQENQELKWEIQELKQ [4H2586-bN]
interaction score: 0.526
--
binder: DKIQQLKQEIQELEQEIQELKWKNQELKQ [4H2576-bN]
interaction score: -2.5
--
binder: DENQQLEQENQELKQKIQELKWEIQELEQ [4H1257-bN]
interaction score: -0.768
--
binder: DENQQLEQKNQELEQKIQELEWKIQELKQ [4H1446-bN]
interaction score: 0.852
--
binder: DKIQQLKQKNQELKQEIQELEWEIQELKQ [4H3010-bN]
interaction score: -0.668
